# target_or_system: THR alpha (Homo sapiens)
# Construct: expressed in transfected cells; host or cells: HEK293T (ATCC CRL-3216)
# Sequence (P10827 1-410 isoform P10827-2): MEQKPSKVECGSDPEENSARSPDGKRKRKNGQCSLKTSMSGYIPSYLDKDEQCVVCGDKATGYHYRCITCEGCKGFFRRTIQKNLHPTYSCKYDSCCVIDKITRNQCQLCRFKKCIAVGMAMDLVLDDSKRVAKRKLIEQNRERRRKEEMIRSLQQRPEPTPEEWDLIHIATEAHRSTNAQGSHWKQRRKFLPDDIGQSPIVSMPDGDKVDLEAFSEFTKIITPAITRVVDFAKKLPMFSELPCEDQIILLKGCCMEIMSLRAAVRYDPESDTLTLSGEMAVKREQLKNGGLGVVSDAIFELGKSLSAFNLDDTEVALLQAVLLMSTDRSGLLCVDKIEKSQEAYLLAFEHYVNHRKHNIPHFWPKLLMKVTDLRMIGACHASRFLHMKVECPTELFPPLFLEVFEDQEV
# Sequence (P19793 whole entry partner): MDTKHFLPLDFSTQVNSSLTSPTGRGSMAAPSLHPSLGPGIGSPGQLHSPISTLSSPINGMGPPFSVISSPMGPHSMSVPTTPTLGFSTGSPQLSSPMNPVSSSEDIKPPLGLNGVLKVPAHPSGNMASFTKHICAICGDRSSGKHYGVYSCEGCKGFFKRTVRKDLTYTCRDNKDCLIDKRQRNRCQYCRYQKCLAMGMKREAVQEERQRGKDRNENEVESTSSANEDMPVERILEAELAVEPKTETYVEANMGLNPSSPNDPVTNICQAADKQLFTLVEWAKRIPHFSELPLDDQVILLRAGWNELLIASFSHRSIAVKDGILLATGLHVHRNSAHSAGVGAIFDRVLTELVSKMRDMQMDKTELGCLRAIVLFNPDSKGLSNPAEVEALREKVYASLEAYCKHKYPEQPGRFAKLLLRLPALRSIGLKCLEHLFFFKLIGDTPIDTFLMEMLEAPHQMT
# protocol_description: HEK293T THR alpha/RXR luciferase reporter assay (Assay 2)
# Format: cell-based
# reported_conditions: Table 4; THR-alpha; Assay 2; read-out: Activity category Assay 2 (EC50, THR-alpha agonist activity)
Catalogue of compounds with associated EC50

# count of solved cases: 8
CC(c1cc(Oc2c(Cl)cc(-n3nc(N)c(=O)[nH]c3=O)cc2Cl)n[nH]c1=O)C1CC(F)(F)C1 (stereo not drawn) [Compound 61]: 250 to 1000 nM
Nc1nn(-c2cc(Cl)c(Oc3ccc4c(c3)C3(CCCCC3)C(=O)N4)c(Cl)c2)c(=O)[nH]c1=O [Compound 85]: < 50 nM
Cc1cc(-n2nc(N)c(=O)[nH]c2=O)cc(C)c1Cc1ccc(O)c(-c2ccccc2)n1 [Compound 43]: < 50 nM
Nc1nn(-c2cc(Cl)c(Oc3cc(Cc4ccccc4)c(=O)[nH]n3)c(Cl)c2)c(=O)[nH]c1=O [Compound 65]: 1000 to 10000 nM
CC(C)(C)c1cc(Oc2c(Cl)cc(-n3nc(N)c(=O)[nH]c3=O)cc2Cl)n[nH]c1=O [Compound 73]: 250 to 1000 nM
CC(C)NC(=O)c1c[nH]c2ccc(Oc3c(Cl)cc(-n4nc(C#N)c(=O)[nH]c4=O)cc3Cl)cc12 [Compound 20]: > 10000 nM
Nc1nn(-c2cc(Cl)c(Oc3cc(C4CCCCC4)c(=O)[nH]n3)c(Cl)c2)c(=O)[nH]c1=O [Compound 58]: 250 to 1000 nM
Cc1cc(-n2nc(N)c(=O)[nH]c2=O)cc(C)c1Cc1ccc2c(c1)C1(CC1)C(=O)N2 [Compound 151]: < 50 nM

Asked: Request body: readout EC50, system THR alpha (Homo sapiens), query CC(C)C1(C)C(=O)Nc2ccc(Oc3c(Cl)cc(-n4nc(N)c(=O)[nH]c4=O)cc3Cl)cc21 (stereo not drawn) [Compound 84] . Return the value.
Given back: 50 to 250 nM

Asked: Given the entry Cc1cc(-n2nc(C#N)c(=O)[nH]c2=O)cc(C)c1Cc1ccc2[nH]cc(C(C)C)c2n1 [Compound 31] , what EC50 was observed with THR alpha (Homo sapiens)?
Given back: 1000 to 10000 nM

Asked: Any idea what EC50 came out for Cc1ccc(-c2cc(Oc3c(Cl)cc(-n4nc(N)c(=O)[nH]c4=O)cc3Cl)n[nH]c2=O)cc1C [Compound 112] on THR alpha (Homo sapiens)?
Given back: 1000 to 10000 nM

Asked: Under THR alpha (Homo sapiens): EC50 value of CC(C)c1cc(=O)[nH]c2ccc(Oc3c(Cl)cc(-n4nc(N)c(=O)[nH]c4=O)cc3Cl)cc12 [Compound 146] ?
Given back: 50 to 250 nM

Asked: So what EC50 did Nc1nn(-c2cc(Cl)c(Oc3cc(C4Cc5ccccc5C4)c(=O)[nH]n3)c(Cl)c2)c(=O)[nH]c1=O [Compound 155] get with THR alpha (Homo sapiens)?
Given back: > 10000 nM

Asked: Short answer please: EC50, THR alpha (Homo sapiens), entry CC(C)c1cc(Oc2c(Cl)cc(-n3nc(N)c(=O)[nH]c3=O)c3c2CC3)n[nH]c1=O [Compound 79]
Given back: 1000 to 10000 nM

Asked: # returns recorded EC50 (system: THR alpha (Homo sapiens)) for CCCCCc1n[nH]c2ccc(Cc3c(C)cc(-n4nc(C#N)c(=O)[nH]c4=O)cc3C)cc12 [Compound 32]
Given back: 50 to 250 nM
